// Human immunodeficiency virus type 1 reverse transcriptase (Human immunodeficiency virus 1) IC50 records
Answer format: numeric, nM implied, no suffix.

Quote IC50 reported for `CCOc1ccc(F)c([C@H]2C[C@H]2NC(=O)Nc2ccc(C#N)cn2)c1Cl` please. 4

Quote IC50 reported for `CCOc1ccc(OC)c([C@H]2C[C@H]2NC(=O)Nc2ccc(Br)cn2)c1F` please. 7

Quote IC50 reported for `O=C(Nc1ccc(Cl)cn1)N[C@@H]1C[C@@H]1c1c(F)cccc1F` please. 2

Quote IC50 reported for `COc1ccc(OC)c(CCNC(=O)Nc2ccc(Cl)cn2)c1F` please. 3

Quote IC50 reported for `COc1ccc(C(C)=O)c(F)c1CCNC(=O)Nc1ccc(Cl)cn1` please. 100

Quote IC50 reported for `CCOc1ccc(F)c([C@H]2C[C@H]2NC(=O)Nc2ccc(Cl)cn2)c1Cl` please. 8

Quote IC50 reported for `CCOc1ccc(F)c(CCNC(=O)Nc2ccc(Br)cn2)c1Cl` please. 4

Quote IC50 reported for `CCOc1ccc(Cl)c([C@H]2C[C@H]2NC(=O)Nc2ccc(Cl)cn2)c1F` please. 1.5

Quote IC50 reported for `COc1ccc(OC)c([C@H]2C[C@H]2NC(=O)Nc2ccc(Cl)cn2)c1F` please. 2

Quote IC50 reported for `CCOc1ccc(OC)c(CCNC(=O)Nc2ccc(Cl)cn2)c1F` please. 8

Quote IC50 reported for `CN(C)c1ccc(F)c(CCNC(=O)Nc2ccc(Br)cn2)c1F` please. 25

Quote IC50 reported for `CCOc1ccc(F)c([C@H]2C[C@H]2NC(=O)Nc2ccc(Cl)cn2)c1F` please. 1.5

* * *

Please provide measured log10 IC50 for the entries that follow.
target: Human immunodeficiency virus type 1 reverse transcriptase (Human immunodeficiency virus 1, UniProt Q72547, Y181C); assay: Inhibitory effect on recombinant HIV- 1 reverse transcriptase which has a mutation Tyr 181 to Cys 181 (clone 90)
Base-10 log of IC50, unit µM.

Quote log10 IC50 reported for `COc1ccc(OC)c(CCNC(=O)Nc2ccc(Cl)cn2)c1F` please. -0.85

Quote log10 IC50 reported for CCc1cc(NCc2nc3c(Cl)ccc(Cl)c3o2)c(O)nc1C [L-697661] please. 1.18

Quote log10 IC50 reported for `CCOc1ccc(Cl)c([C@H]2C[C@H]2NC(=O)Nc2ccc(Cl)cn2)c1F` please. -1.70

Quote log10 IC50 reported for `CCOc1ccc(F)c([C@H]2C[C@H]2NC(=O)Nc2ccc(Cl)cn2)c1Cl` please. -1.30

Quote log10 IC50 reported for `CCOc1ccc(F)c([C@H]2C[C@H]2NC(=O)Nc2ccc(C#N)cn2)c1Cl` please. -1.15

Quote log10 IC50 reported for `CCOc1ccc(OC)c([C@H]2C[C@H]2NC(=O)Nc2ccc(Br)cn2)c1F` please. -1.05

Quote log10 IC50 reported for `COc1ccc(C(C)=O)c(F)c1CCNC(=O)Nc1ccc(Cl)cn1` please. 1.00

Quote log10 IC50 reported for `O=C(Nc1ccc(Cl)cn1)N[C@@H]1C[C@@H]1c1c(F)cccc1F` please. -0.92

Quote log10 IC50 reported for `CN(C)c1ccc(F)c(CCNC(=O)Nc2ccc(Br)cn2)c1F` please. 0.18

Quote log10 IC50 reported for `CCOc1ccc(F)c(CCNC(=O)Nc2ccc(Br)cn2)c1Cl` please. -0.62
